- Test Name: Biodistribution in BALB/c nude mice bearing A431-CCK2R/A431-mock xenografts
- Assay type: in vivo
- Assay Setup: female, BALB/c nude, mouse, spleen, iv, 20 pmol, total radioactivity, xenografted BALB/c nude mice, i.v., 20 pmol, gallium-68, 1 h p.i., mean ± SD n = 4; read-out: Uptake in spleen

- Compound: "CCCC[C@@H](C(=O)N[C@@H](CC(=O)O)C(=O)N(C)[C@@H](Cc1cccc2ccccc12)C(N)=O)N(C)C(=O)[C@H](Cc1c[nH]c2ccccc12)NC(=O)CNC(=O)[C@H](Cc1ccc(O)cc1)NC(=O)[C@H](C)NC(=O)[C@@H](CCC(=O)O)NC(=O)CN1CCN(CC(=O)O)CCN(CC(=O)O)CCN(CC(=O)O)CC1 [[^68Ga]Ga-DOTA-[(N-Me)1Nal^8]MGS5, metal not drawn]"
  tissue uptake at 1 h, %ID/g: 1.19

* * *

- Test Name: Metabolic studies in BALB/c mice (intact radiopeptide by radio-HPLC)
- Assay type: in vivo
- Assay Setup: i.v., 2 nmol, 10 min p.i., two animals per peptide
Where a SMILES comes first, the peptide text is derived from it. [ ]: non-standard residue; d: D form. The star is where a group is joined. DOTA = O=C(O)CN1CCN(CC(=O)O)CCN(CC(=O)*)CCN(CC(=O)O)CC1; 1Nal = N[C@@H](Cc1cccc2ccccc12)C(=O)O; NMeNle = CCCC[C@H](NC)C(=O)O
Items are presented alongside their recorded Intact radiopeptide in urine.

- Compound: "CCCC[C@@H](C(=O)N[C@@H](CC(=O)O)C(=O)N[C@@H](Cc1cccc2ccccc12)C(N)=O)N(C)C(=O)[C@H](Cc1c[nH]c2ccccc12)NC(=O)CNC(=O)[C@H](Cc1ccc(O)cc1)NC(=O)[C@H](C)NC(=O)[C@@H](CCCCN)NC(=O)CN1CCN(CC(=O)O)CCN(CC(=O)O)CCN(CC(=O)O)CC1 [[^111In]In-DOTA-[DLys^1]MGS5] [metal not drawn] ({DOTA}-[dK]AYGW[NMeNle]D[1Nal]-NH2)"
  Intact radiopeptide in urine, %: 5.8
- Compound: "CCCC[C@@H](C(=O)N[C@@H](CC(=O)O)C(=O)N[C@@H](Cc1cccc2ccccc12)C(=O)NC)N(C)C(=O)[C@H](Cc1c[nH]c2ccccc12)NC(=O)CNC(=O)[C@H](Cc1ccc(O)cc1)NC(=O)[C@H](C)NC(=O)[C@@H](CCC(=O)O)NC(=O)CN1CCN(CC(=O)O)CCN(CC(=O)O)CCN(CC(=O)O)CC1 [[^111In]In-DOTA-MGS5[NHCH3]] [metal not drawn]"
  Intact radiopeptide in urine, %: 1.3
- Compound: "CCCC[C@@H](C(=O)N[C@@H](CC(=O)O)C(=O)N[C@@H](Cc1ccc2ccccc2c1)C(N)=O)N(C)C(=O)[C@H](Cc1c[nH]c2ccccc12)NC(=O)CNC(=O)[C@H](Cc1ccc(O)cc1)NC(=O)[C@H](C)NC(=O)[C@@H](CCC(=O)O)NC(=O)CN1CCN(CC(=O)O)CCN(CC(=O)O)CCN(CC(=O)O)CC1 [[^111In]In-DOTA-[2Nal^8]MGS5] [metal not drawn]"
  Intact radiopeptide in urine, %: 28.2
- Compound: "CCCC[C@@H](C(=O)N[C@@H](CC(=O)O)C(=O)N(C)[C@@H](Cc1cccc2ccccc12)C(N)=O)N(C)C(=O)[C@H](Cc1c[nH]c2ccccc12)NC(=O)CNC(=O)[C@H](Cc1ccc(O)cc1)NC(=O)[C@H](C)NC(=O)[C@@H](CCC(=O)O)NC(=O)CN1CCN(CC(=O)O)CCN(CC(=O)O)CCN(CC(=O)O)CC1 [[^111In]In-DOTA-[(N-Me)1Nal^8]MGS5] [metal not drawn]"
  Intact radiopeptide in urine, %: 15.9

* * *

- Test Name: Biodistribution in BALB/c nude mice bearing A431-CCK2R/A431-mock xenografts
- Format: in vivo
- Assay Setup: female, athymic BALB/c nude, mouse, blood, iv, 20 pmol, total radioactivity, xenografted BALB/c nude mice, i.v., 20 pmol, gallium-68, 1 h p.i., mean ± SD n = 4; read-out: Uptake in blood

- Molecule: "CCCC[C@@H](C(=O)N[C@@H](CC(=O)O)C(=O)N(C)[C@@H](Cc1cccc2ccccc12)C(N)=O)N(C)C(=O)[C@H](Cc1c[nH]c2ccccc12)NC(=O)CNC(=O)[C@H](Cc1ccc(O)cc1)NC(=O)[C@H](C)NC(=O)[C@@H](CCC(=O)O)NC(=O)CN1CCN(CC(=O)O)CCN(CC(=O)O)CCN(CC(=O)O)CC1 [[^68Ga]Ga-DOTA-[(N-Me)1Nal^8]MGS5, metal not drawn]"
  tissue uptake at 1 h: "2.82 %ID/g"

* * *

- Test Name: Binding to serum proteins (incubation in human serum, Sephadex G-50 size exclusion chromatography)
- Format: in vitro ADME
- Assay Setup: radiolabeled peptide (111In where no radiometal named), 37 °C, 24 h after incubation, Sephadex G-50, γ-counter, n = 2
Where a SMILES comes first, the peptide text is derived from it. [ ]: non-standard residue; d: D form. The star is where a group is joined. DOTA = O=C(O)CN1CCN(CC(=O)O)CCN(CC(=O)*)CCN(CC(=O)O)CC1; NMeNle = CCCC[C@H](NC)C(=O)O
Items are presented alongside their recorded fraction unbound at 24 h, 500 pmol/mL.
Observed Property: fraction unbound at 24 h, 500 pmol/mL

- Molecule: "CCCC[C@@H](C(=O)N[C@@H](CC(=O)O)C(=O)N[C@@H](Cc1cccc2ccccc12)C(=O)NC)N(C)C(=O)[C@H](Cc1c[nH]c2ccccc12)NC(=O)CNC(=O)[C@H](Cc1ccc(O)cc1)NC(=O)[C@H](C)NC(=O)[C@@H](CCC(=O)O)NC(=O)CN1CCN(CC(=O)O)CCN(CC(=O)O)CCN(CC(=O)O)CC1 [[^111In]In-DOTA-MGS5[NHCH3], metal not drawn]"
  Reported Measurement: 0.591
- Molecule: "CCCC[C@@H](C(=O)N[C@@H](CC(=O)O)C(=O)N[C@@H](Cc1ccccc1)C(N)=O)N(C)C(=O)[C@H](Cc1c[nH]c2ccccc12)NC(=O)CNC(=O)[C@H](Cc1ccc(O)cc1)NC(=O)[C@H](C)NC(=O)[C@@H](CCC(=O)O)NC(=O)CN1CCN(CC(=O)O)CCN(CC(=O)O)CCN(CC(=O)O)CC1 [[^111In]In-DOTA-[Phe^8]MGS5, metal not drawn] ({DOTA}-[dE]AYGW[NMeNle]DF-NH2)"
  Reported Measurement: 0.798
- Molecule: "CCCC[C@@H](C(=O)N[C@@H](CC(=O)O)C(=O)N(C)[C@@H](Cc1cccc2ccccc12)C(N)=O)N(C)C(=O)[C@H](Cc1c[nH]c2ccccc12)NC(=O)CNC(=O)[C@H](Cc1ccc(O)cc1)NC(=O)[C@H](C)NC(=O)[C@@H](CCC(=O)O)NC(=O)CN1CCN(CC(=O)O)CCN(CC(=O)O)CCN(CC(=O)O)CC1 [[^177Lu]Lu-DOTA-[(N-Me)1Nal^8]MGS5, metal not drawn]"
  Reported Measurement: 0.713

* * *

- Test Name: Biodistribution in BALB/c nude mice bearing A431-CCK2R/A431-mock xenografts
- Assay type: in vivo
- Assay Setup: female, athymic BALB/c nude, mouse, A431-mock xenograft, iv, 20 pmol, total radioactivity, xenografted BALB/c nude mice, i.v., ~20 pmol, 4 h p.i. (indium-111 or lutetium-177), mean ± SD n = 4; read-out: Uptake in A431-mock xenograft
- Description: The overall biodistribution and tumor targeting properties of selected radiolabeled peptides were evaluated in female athymic BALB/c nude mice (Charles River, Sulzfeld, Germany, age of 7 to 9 weeks). […] The tumors and other tissues (blood, lung, heart, muscle, spleen, intestine, liver, kidney, stomach, and pancreas) were dissected, weighed, and the radioactivity measured in the γ-counter. […]
Where a SMILES comes first, the peptide text is derived from it. [ ]: non-standard residue; d: D form. The star is where a group is joined. DOTA = O=C(O)CN1CCN(CC(=O)O)CCN(CC(=O)*)CCN(CC(=O)O)CC1; 1Nal = N[C@@H](Cc1cccc2ccccc12)C(=O)O; NMeNle = CCCC[C@H](NC)C(=O)O

- Compound: "CCCC[C@@H](C(=O)N[C@@H](CC(=O)O)C(=O)N[C@@H](Cc1cccc2ccccc12)C(=O)NC)N(C)C(=O)[C@H](Cc1c[nH]c2ccccc12)NC(=O)CNC(=O)[C@H](Cc1ccc(O)cc1)NC(=O)[C@H](C)NC(=O)[C@@H](CCC(=O)O)NC(=O)CN1CCN(CC(=O)O)CCN(CC(=O)O)CCN(CC(=O)O)CC1 [[^111In]In-DOTA-MGS5[NHCH3], metal not drawn]"
  tissue uptake at 4 h (%ID/g): 0.19
- Compound: "CCCC[C@@H](C(=O)N[C@@H](CC(=O)O)C(=O)N[C@@H](Cc1cccc2ccccc12)C(N)=O)N(C)C(=O)[C@H](Cc1c[nH]c2ccccc12)NC(=O)CNC(=O)[C@H](Cc1ccc(O)cc1)NC(=O)[C@H](C)NC(=O)[C@@H](CCCCN)NC(=O)CN1CCN(CC(=O)O)CCN(CC(=O)O)CCN(CC(=O)O)CC1 [[^111In]In-DOTA-[DLys^1]MGS5, metal not drawn] ({DOTA}-[dK]AYGW[NMeNle]D[1Nal]-NH2)"
  tissue uptake at 4 h (%ID/g): 0.56
- Compound: "CCCC[C@@H](C(=O)N[C@@H](CC(=O)O)C(=O)N[C@@H](Cc1ccc2ccccc2c1)C(N)=O)N(C)C(=O)[C@H](Cc1c[nH]c2ccccc12)NC(=O)CNC(=O)[C@H](Cc1ccc(O)cc1)NC(=O)[C@H](C)NC(=O)[C@@H](CCC(=O)O)NC(=O)CN1CCN(CC(=O)O)CCN(CC(=O)O)CCN(CC(=O)O)CC1 [[^111In]In-DOTA-[2Nal^8]MGS5, metal not drawn]"
  tissue uptake at 4 h (%ID/g): 0.17
